# TARGET_OR_TEST_SYSTEM: UniProt:Q72547
# TEST_CONTEXT: MT4
# Description: Inhibitory activity against HIV-1 Ile 100 mutant in MT-4 cells.
MEASURE: ED50 (µM)
Answers are plain numbers, in µM.

Consider the reported ED50 for these compounds:
COMPOUND: CCC(=O)c1ccc(F)c(C2CC2NC(=O)Nc2ccc(Br)cn2)c1O (stereo in doubt; 18)
UNIT_STRING: µM
ED50: 0.053
--
COMPOUND: CCC(=O)c1ccc(F)c(C2CC2NC(=O)Nc2ccc(Br)cn2)c1O (stereo in doubt; 17)
UNIT_STRING: µM
ED50: 0.1
--
COMPOUND: CCOc1ccc(F)c(C2CC2NC(=O)Nc2cc(Cl)cnn2)c1Cl (stereo not given)
UNIT_STRING: µM
ED50: 4.4
--
COMPOUND: CC(=O)c1ccc(F)c(C2CC2NC(=O)Nc2ccc(C#N)cn2)c1O (stereo not given)
UNIT_STRING: µM
ED50: 0.04

// query Find the recorded ED50 belonging to CCC(=O)c1ccc(F)c(C2CC2NC(=O)Nc2ccc(C#N)cn2)c1O (stereo not given) and report it.
// result 0.069
